This listing pairs compounds with measured IC50.
test target: UniProt P62942
Sequence (P62942 whole entry): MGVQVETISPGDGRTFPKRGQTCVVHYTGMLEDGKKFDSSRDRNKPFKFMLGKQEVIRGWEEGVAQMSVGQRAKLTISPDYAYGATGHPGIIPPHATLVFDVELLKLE
protocol details: PPIase Inhibition Assay
Format: biochemical
stated conditions: concentration of inhibitor required for 50% inhibition of enzyme activity; FKBP, substrate Succinyl-Ala-Phe-Pro-Phe-para-nitroanilide; TABLE I
Counter-ions that a name gives are not always drawn.

{"compound": "CC[C@H](C)[C@H](NC(=O)[C@@H]1CCCN1CC(=O)c1ccc(Oc2ccccc2)cc1)C(=O)NCc1ccccc1", "IC50": "< 5 µM"}
{"compound": "CC[C@H](C)[C@H](NC(=O)[C@@H]1CCCN1CC(=O)C12CC3CC(CC(C3)C1)C2)C(=O)NCc1ccncc1", "IC50": "0.71 µM"}
{"compound": "COc1cc(C(=O)CN2CCC[C@H]2C(=O)NCC(=O)c2ccccc2)cc(OC)c1OC", "IC50": "> 5 µM"}
{"compound": "COc1cc(C(=O)CN2CCCC[C@H]2C(=O)N[C@H](/C=C/c2ccccc2)CC(C)C)cc(OC)c1OC", "IC50": "> 5 µM"}
{"compound": "CC[C@H](C)[C@H](NC(=O)[C@@H]1CCCN1CC(=O)c1ccc(OCCOc2ccccc2)cc1)C(=O)NCc1ccccc1", "IC50": "< 5 µM"}
{"compound": "CC[C@H](C)[C@H](NC(=O)[C@@H]1CCCN1CC(=O)c1cc2ccccc2o1)C(=O)NCc1ccccc1 [Example 100, Hydrochloride Salt]", "IC50": "> 5 µM"}
{"compound": "COc1cc(C(=O)CN2CCC[C@H]2C(=O)NC(C)(C)C)cc(OC)c1OC [Example 143, Hydrochloride]", "IC50": "> 5 µM"}
{"compound": "CC[C@H](C)[C@H](NC(=O)[C@@H]1CCCCN1CC(=O)c1ccccc1)C(=O)NCc1ccccc1", "IC50": "< 50 µM"}
{"compound": "COc1cc(C(=O)CN2CCC[C@H]2C(=O)NCCc2ccc(NC(=O)c3ccccc3)cc2)cc(OC)c1OC", "IC50": "> 5 µM"}
{"compound": "CC[C@H](C)[C@H](NC(=O)[C@@H]1CCCN1CC(=O)Nc1ccc(Cl)cc1Cl)C(=O)NCc1ccccc1", "IC50": "> 5 µM"}
{"compound": "COc1cc(C(=O)CN2CCC[C@H]2C(=O)NCc2ccccc2)cc(OC)c1OC [Example 120, Hydrochloride]", "IC50": "> 5 µM"}
{"compound": "CC[C@H](C)[C@H](NC(=O)[C@@H]1CCCN1CC(=O)c1ccccc1)C(=O)NCc1ccccc1", "IC50": "2.7 µM"}
{"compound": "CC[C@H](C)[C@H](NC(=O)[C@@H]1CCCN1CC(=O)c1sc2ccc(Cl)cc2c1C)C(=O)NCc1ccccc1", "IC50": "50 µM"}
{"compound": "COc1cccc(CNC(=O)[C@@H]2CCCN2CC(=O)c2cc(OC)c(OC)c(OC)c2)c1 [Example 133, Hydrochloride]", "IC50": "> 5 µM"}
{"compound": "CC[C@H](C)[C@H](NC(=O)[C@@H]1CCCN1CC(=O)OCc1ccccc1)C(=O)NCc1ccccc1", "IC50": "2.2 µM"}
{"compound": "CC[C@H](C)[C@H](NC(=O)[C@@H]1CCCN1CC(=O)c1cc(OC)c(OC)cc1OC)C(=O)NCc1ccccc1", "IC50": "< 5 µM"}
{"compound": "CC[C@H](C)[C@H](NC(=O)[C@@H]1CCCN1CC(=O)c1ccc(OC)cc1OC)C(=O)NCc1ccccc1", "IC50": "< 50 µM"}
{"compound": "CC[C@H](C)[C@H](NC(=O)[C@@H]1CCCN1CC(=O)N1CCC(Cc2ccccc2)CC1)C(=O)NCc1ccccc1", "IC50": "< 5 µM"}
{"compound": "CC[C@H](C)[C@H](NC(=O)[C@@H]1CCCN1CC(=O)NCC1CCCCC1)C(=O)NCc1ccccc1", "IC50": "> 5 µM"}
{"compound": "C/C=C/C=C/COC(=O)CN1CCC[C@H]1C(=O)N[C@H](C(=O)NCc1ccccc1)[C@@H](C)CC (relative stereo)", "IC50": "5.8 µM"}

Entry source: patent US5686424A
